// data source = patent US11208400B2

# target_entity: human Npt2a (Homo sapiens)
# Construct: expressed in transfected cells
# experimental_details: Npt2a activity cell based assay, membrane potential dye, CHO T-REx hNpt2a cells
# run_parameters: doxycycline-induced, depolarization by sodium phosphate influx, average or median values if tested more than once
quantity_kind: IC50 (nM)
Write the value in nM as a bare number.

Field: example entries. Status: answers known.
[
  {
    "compound": "COC(C)c1c(C)nn(-c2cc(Nc3nn(C)c(-c4ccc(F)cc4)c3C)ncn2)c1C (single isomer, unassigned) [Example 345]",
    "target_entity": "human Npt2a (Homo sapiens)",
    "data_value": 7
  },
  {
    "compound": "CCOC(=O)c1c(C)nn(-c2cc(Nc3nn(C)c(-c4ccc(F)cc4)c3C)ncn2)c1C [Example 61]",
    "target_entity": "human Npt2a (Homo sapiens)",
    "data_value": 4.4
  },
  {
    "compound": "COc1ccc(-c2nn(CC3CC3)c(Nc3cc(-n4nc(C)c(C(F)(F)F)c4C)ncn3)c2C)cc1 [Example 486]",
    "target_entity": "human Npt2a (Homo sapiens)",
    "data_value": 59
  }
]

Determine from records and report IC50 for CCc1c(Nc2cc(-n3nc(C)c(CC(=O)OC(C)C)c3C)ncn2)nn(C)c1-c1ccc(F)cc1 [Example 440]
97

Item Cc1nn(-c2cc(Nc3nn(C)c(-c4ccc(F)cc4)c3Cl)ncn2)c2ccccc12 [Example 110] : provide IC50
22

Kindly indicate its recorded IC50. Item: Cc1nn(-c2cc(Nc3c(Cl)c(-c4ccc(F)cc4)nn3CC3CC3)ncn2)c(C)c1Cl [Example 185]
27

###

# target_entity: UniProt Q06495
# experimental_details: Npt2a activity cell based assay, membrane potential dye, CHO T-REx hNpt2a cells
# run_parameters: doxycycline-induced, depolarization by sodium phosphate influx, average or median values if tested more than once
Reported IC50 values are given for each entry in this list.

Some compounds with recorded IC50:
[
  {
    "compound": "CCOC(=O)c1c(C)nn(-c2cc(Nc3n[nH]c(-c4ccccc4)c3C)ncn2)c1C",
    "IC50": "81 nM"
  },
  {
    "compound": "COC(C)c1c(C)nn(-c2cc(Nc3c(C)c(-c4ccc(C#N)cc4)nn3C)ncn2)c1C (single isomer, unassigned) [Example 339]",
    "IC50": "8 nM"
  },
  {
    "compound": "CCOC(=O)c1c(C)nn(-c2cc(Nc3c(OC)c(-c4ccc(F)cc4)nn3CC3CC3)ncn2)c1C",
    "IC50": "82 nM"
  },
  {
    "compound": "Cc1cc(C)n(-c2cc(Nc3nn(C)c(-c4cccc(C#N)c4)c3C)ncn2)n1",
    "IC50": "74 nM"
  },
  {
    "compound": "Cc1nn(-c2cc(Nc3c(C)c(-c4ccc(C#N)cc4)nn3CC3CC3)ncn2)c(C(F)F)c1C(=O)OC(C)(C)C",
    "IC50": "16 nM"
  }
]

Fetch value of IC50 on UniProt Q06495 for CCc1c(-c2ccc(F)cc2)nn(CC2CCC2)c1Nc1cc(-n2nc(C)cc2C)ncn1 .
106 nM

Report measured IC50 on UniProt Q06495; entry: CCOC(=O)c1c(C)nn(-c2cc(Nc3c(C)c(-c4ccc(C(F)(F)F)cc4)nn3CC3CC3)ncn2)c1C
140 nM

Supply IC50 measured with UniProt Q06495 for CCc1c(Nc2cc(-n3nc4c(c3O)CCCC4)ncn2)n[nH]c1-c1ccc(F)cc1 .
620 nM

Report value only: IC50, UniProt Q06495, Cc1nn(-c2cc(Nc3[nH]nc(-c4ccc(C#N)cc4)c3C)ncn2)c(C)c1F
410 nM

State IC50 (UniProt Q06495) of COc1c(-c2ccc(C#N)cc2)nn(CC2CC2)c1Nc1cc(-n2nc(C)c(C(C)=O)c2C)ncn1 .
790 nM

###

# target_entity: human Npt2a (Homo sapiens, UniProt Q06495)
# experimental_details: Npt2a activity cell based assay, membrane potential dye, CHO T-REx hNpt2a cells
# run_parameters: doxycycline-induced, depolarization by sodium phosphate influx, average or median values if tested more than once
quantity_kind: IC50
Please don't drop the unit; write it after the number.

[
  {
    "molecule": "Cc1nn(-c2cc(Nc3c(C)c(-c4ccc(F)cc4)nn3CC3CC3)ncn2)c(C)c1CN1CC(F)(F)C1",
    "target_entity": "human Npt2a (Homo sapiens, UniProt Q06495)",
    "IC50": "25 nM"
  },
  {
    "molecule": "CCOC(=O)c1c(Cl)c(C)nn1-c1cc(Nc2nn(C)c(-c3ccc(F)cc3)c2C)ncn1",
    "target_entity": "human Npt2a (Homo sapiens, UniProt Q06495)",
    "IC50": "50 nM"
  },
  {
    "molecule": "COc1c(Nc2cc(-n3nc(C)cc3C)ncn2)nn(C)c1-c1ccc(C#N)cc1",
    "target_entity": "human Npt2a (Homo sapiens, UniProt Q06495)",
    "IC50": "11 nM"
  },
  {
    "molecule": "CCOC(=O)c1c(Cl)c(C)nn1-c1cc(Nc2nn(C)c(-c3ccc(F)cc3)c2Cl)ncn1",
    "target_entity": "human Npt2a (Homo sapiens, UniProt Q06495)",
    "IC50": "47 nM"
  },
  {
    "molecule": "CCc1c(Nc2cc(-n3nc(C)c(-c4nnc(C)o4)c3C)ncn2)nn(C)c1-c1ccc(F)cc1",
    "target_entity": "human Npt2a (Homo sapiens, UniProt Q06495)",
    "IC50": "39 nM"
  },
  {
    "molecule": "CCOC(=O)c1c(C)nn(-c2cc(Nc3c(CC)c(-c4ccc(F)cc4)nn3C)ncn2)c1C",
    "target_entity": "human Npt2a (Homo sapiens, UniProt Q06495)",
    "IC50": "9 nM"
  }
]

Name the recorded IC50 of the item CCc1c(Nc2cc(-n3nc(C)c(C4(O)CCC4)c3C)ncn2)nn(C)c1-c1ccc(F)cc1 in your answer.
250 nM

Return reported IC50. Input molecule: Cc1nn(-c2cc(Nc3[nH]nc(-c4ccc(F)cc4F)c3Cl)ncn2)c(C)c1Cl
13 nM

Give reported IC50 value for Cc1cc(C)n(-c2cc(Nc3nn(CCC4CC4)c(-c4ccc(C#N)cc4)c3C)ncn2)n1
1170 nM

Fill in reported IC50 for this entry: Cc1cc(C)n(-c2cc(Nc3nn(C)c(-c4ccc(C#N)cc4)c3C)ncn2)n1
7 nM

Quote IC50 reported for CCc1c(-c2ccc(F)cc2)nn(C2CC2)c1Nc1cc(-n2nc(C)c(Cl)c2C)ncn1 please.
1450 nM

Supply IC50 value. Item: COC(C)c1c(C)nn(-c2cc(Nc3c(C)c(-c4ccc(F)cc4)nn3CC3CC3)ncn2)c1C (single isomer, unassigned) [Example 328]
4 nM

Specify IC50 for Cc1nn(-c2cc(Nc3c(C)c(-c4ccc(F)cc4)nn3CC3CC3)ncn2)c(C)c1S(C)(=O)=O and stop.
55 nM

Tell me IC50 reported for CCc1c(Nc2cc(-n3ncc4c3CCCC4)ncn2)n[nH]c1-c1ccc(F)cc1
150 nM

Identify measured IC50 corresponding to Cc1cc(C(F)F)n(-c2cc(Nc3c(C)c(-c4ccc(F)cn4)nn3CC3CC3)ncn2)n1
240 nM

###

Attribute: pIC50
# target_entity: UniProtKB Q06495
# Sequence (Q06495 1-639): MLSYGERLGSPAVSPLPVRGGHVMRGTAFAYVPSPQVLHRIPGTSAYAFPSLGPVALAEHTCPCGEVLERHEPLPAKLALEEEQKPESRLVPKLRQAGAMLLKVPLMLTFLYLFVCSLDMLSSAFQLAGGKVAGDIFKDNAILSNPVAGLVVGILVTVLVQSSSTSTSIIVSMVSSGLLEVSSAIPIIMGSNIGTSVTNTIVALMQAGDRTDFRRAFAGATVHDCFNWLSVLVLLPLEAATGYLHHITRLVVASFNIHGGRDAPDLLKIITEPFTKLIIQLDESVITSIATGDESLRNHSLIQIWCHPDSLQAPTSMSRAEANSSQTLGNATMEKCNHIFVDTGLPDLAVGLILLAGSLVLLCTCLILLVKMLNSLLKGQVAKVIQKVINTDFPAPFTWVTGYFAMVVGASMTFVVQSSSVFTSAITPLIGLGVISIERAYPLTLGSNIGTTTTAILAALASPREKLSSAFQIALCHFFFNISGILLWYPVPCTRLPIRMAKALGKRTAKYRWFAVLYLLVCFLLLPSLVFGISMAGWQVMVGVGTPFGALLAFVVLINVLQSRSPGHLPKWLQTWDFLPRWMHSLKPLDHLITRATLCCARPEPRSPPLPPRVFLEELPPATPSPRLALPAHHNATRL
# experimental_details: Npt2a activity cell based assay, membrane potential dye, CHO T-REx hNpt2a cells
# run_parameters: doxycycline-induced, depolarization by sodium phosphate influx, average or median values if tested more than once
// returns pIC50 (minus log10 of molar concentration), number only

[
  {
    "compound": "COc1c(C)nn(-c2cc(Nc3c(C)c(-c4ccc(C(F)F)nc4)nn3CC3CC3)ncn2)c1C",
    "pIC50": 6.72
  },
  {
    "compound": "Cc1ccc(-c2nn(CC3CC3)c(Nc3cc(-n4nc(C)c(C(F)(F)F)c4C)ncn3)c2C)cn1",
    "pIC50": 6.78
  },
  {
    "compound": "Cc1nn(-c2cc(Nc3c(C)c(-c4ccc(C#N)cc4)nn3CC3CC3)ncn2)c(C)c1C(F)(F)F",
    "pIC50": 8.30
  },
  {
    "compound": "Cc1cc(C(F)F)n(-c2cc(Nc3c(C)c(-c4ccc(C(F)(F)F)cc4)nn3CC3CC3)ncn2)n1",
    "pIC50": 6.25
  },
  {
    "compound": "Cc1cc(C)n(-c2cc(Nc3c(C)c(-c4ccc(OC(F)(F)F)cc4)nn3CC3CC3)ncn2)n1",
    "pIC50": 7.64
  }
]

Please supply the value of reported pIC50 for the item CCOC(=O)c1c(Cl)c(C)nn1-c1cc(Nc2nn(C)c(-c3ccc(F)cc3)c2CC)ncn1
7.59
